Study System: CDK13 (Homo sapiens, UniProt Q14004)
Sequence (Q14004 whole entry, species assumed): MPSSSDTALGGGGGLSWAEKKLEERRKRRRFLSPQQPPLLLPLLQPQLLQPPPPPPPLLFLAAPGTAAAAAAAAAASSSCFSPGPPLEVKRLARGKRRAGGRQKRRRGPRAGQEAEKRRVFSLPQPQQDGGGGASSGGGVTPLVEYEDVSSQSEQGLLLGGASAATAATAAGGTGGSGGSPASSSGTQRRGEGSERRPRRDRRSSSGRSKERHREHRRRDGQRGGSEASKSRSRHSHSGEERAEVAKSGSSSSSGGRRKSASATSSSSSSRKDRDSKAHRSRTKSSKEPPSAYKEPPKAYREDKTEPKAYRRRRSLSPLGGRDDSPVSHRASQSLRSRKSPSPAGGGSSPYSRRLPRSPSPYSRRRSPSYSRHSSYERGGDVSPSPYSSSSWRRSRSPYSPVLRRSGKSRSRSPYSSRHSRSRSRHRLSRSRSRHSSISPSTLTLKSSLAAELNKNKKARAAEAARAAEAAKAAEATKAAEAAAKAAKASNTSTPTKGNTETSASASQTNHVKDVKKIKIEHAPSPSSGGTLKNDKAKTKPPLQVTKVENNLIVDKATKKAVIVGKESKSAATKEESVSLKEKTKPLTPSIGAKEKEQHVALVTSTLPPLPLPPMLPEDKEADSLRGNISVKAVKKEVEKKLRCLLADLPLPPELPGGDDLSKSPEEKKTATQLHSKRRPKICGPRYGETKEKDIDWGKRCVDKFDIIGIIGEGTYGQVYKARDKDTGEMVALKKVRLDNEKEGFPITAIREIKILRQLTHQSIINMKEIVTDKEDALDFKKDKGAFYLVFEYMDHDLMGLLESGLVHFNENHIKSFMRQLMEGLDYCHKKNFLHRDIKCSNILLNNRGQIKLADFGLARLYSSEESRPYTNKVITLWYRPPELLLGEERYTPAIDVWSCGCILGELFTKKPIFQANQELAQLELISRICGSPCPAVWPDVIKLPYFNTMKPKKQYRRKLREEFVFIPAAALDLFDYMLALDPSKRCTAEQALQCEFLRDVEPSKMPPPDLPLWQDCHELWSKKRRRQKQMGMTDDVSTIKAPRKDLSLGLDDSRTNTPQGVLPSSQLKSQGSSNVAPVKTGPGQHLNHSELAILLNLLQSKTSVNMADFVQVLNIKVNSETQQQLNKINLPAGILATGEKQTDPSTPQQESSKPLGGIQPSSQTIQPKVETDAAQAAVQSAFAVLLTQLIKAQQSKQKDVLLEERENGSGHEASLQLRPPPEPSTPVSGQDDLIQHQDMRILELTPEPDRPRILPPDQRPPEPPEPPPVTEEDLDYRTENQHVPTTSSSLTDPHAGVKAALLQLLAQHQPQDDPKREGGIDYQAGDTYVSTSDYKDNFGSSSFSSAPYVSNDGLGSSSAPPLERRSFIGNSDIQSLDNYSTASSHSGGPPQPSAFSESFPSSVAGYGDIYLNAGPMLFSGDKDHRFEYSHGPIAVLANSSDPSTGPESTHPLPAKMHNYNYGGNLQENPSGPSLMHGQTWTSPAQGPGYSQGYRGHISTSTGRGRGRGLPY
Sequence (O75909 whole entry partner, species assumed): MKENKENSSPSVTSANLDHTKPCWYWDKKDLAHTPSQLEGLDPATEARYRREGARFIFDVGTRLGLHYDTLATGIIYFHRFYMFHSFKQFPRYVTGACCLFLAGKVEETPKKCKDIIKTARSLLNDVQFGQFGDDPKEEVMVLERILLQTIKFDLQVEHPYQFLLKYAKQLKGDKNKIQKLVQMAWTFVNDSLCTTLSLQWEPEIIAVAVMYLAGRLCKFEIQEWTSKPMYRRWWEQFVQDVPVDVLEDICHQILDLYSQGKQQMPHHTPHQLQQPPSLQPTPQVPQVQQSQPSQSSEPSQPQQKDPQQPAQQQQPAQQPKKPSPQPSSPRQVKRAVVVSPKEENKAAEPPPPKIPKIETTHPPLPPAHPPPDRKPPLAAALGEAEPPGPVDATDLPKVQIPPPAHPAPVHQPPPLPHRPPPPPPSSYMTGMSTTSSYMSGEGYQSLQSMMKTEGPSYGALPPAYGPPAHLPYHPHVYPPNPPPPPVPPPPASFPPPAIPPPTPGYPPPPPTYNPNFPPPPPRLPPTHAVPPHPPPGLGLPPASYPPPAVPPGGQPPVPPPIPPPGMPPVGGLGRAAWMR
Assay Procedure: CDK13 kinase inhibitory activity assay (33P-ATP filter binding)
Type: biochemical
Run Conditions: kinase reaction 120 minutes, 33P-gamma-ATP; read-out: CDK13 IC50
pIC50: −log10 of the molar value.
# pIC50 annotations

Compound | pIC50
N#CC1CCN(c2cc(NCc3nc4cc(Cl)c(Cl)cc4[nH]3)c3ncc(C(F)(F)F)n3n2)C1 (stereo not shown) | > 7.00
CN1CC2(C1)CN(c1cc(NCc3nc4cc(Cl)c(Cl)cc4[nH]3)c3ncc(C(F)(F)F)n3n1)C2 | > 7.00
NC1CN(c2cc(NCc3nc4cc(Cl)c(Cl)cc4[nH]3)c3ncc(C(F)(F)F)n3n2)C1 | > 7.00

Find the recorded pIC50 belonging to `COc1cccc2[nH]c(CNc3cc(N4CCOCC4)nn4c(C(F)(F)F)cnc34)nc12` and report it. > 7.00

---

# IC50 annotations
Test system: MDA-MB-231 breast cancer cells
Assay Procedure: Proliferation inhibitory activity assay against MDA-MB-231 breast cancer cells
Assay type: cell-based
Run Conditions: Homo sapiens, 72 hours, CellTiter Glo, relative IC50
Experimental: Experiments were performed using the MDA-MB-231 breast cancer cell line to measure the cell proliferation inhibitory ability of each Example compound. […] Luminescence signals were measured after inserting the 96-well plate into an Envision plate reader (PerkinElmer). Relative IC50 values were calculated by fitting a dose-response curve using XLfit (IDBS Ltd) software. […]

Example molecules with recorded IC50:
Molecule | IC50
CC#Cc1cnc2c(NCc3nc4ccc(F)c(F)c4[nH]3)cc(N3CCOCC3)nn12 | > 500 nM
O=C(CO)NC1CCN(c2cc(NCc3nc4cc(Cl)c(Cl)cc4[nH]3)c3ncc(C(F)(F)F)n3n2)CC1 | ≤ 50 nM
C#Cc1cnc2c(NCc3nc4ccc(F)c(F)c4[nH]3)cc(N3CCOCC3)nn12 | 50 to 500 nM

Note: attention shifts to another entry.
Find the recorded IC50 belonging to Fc1ccc2nc(CNc3cc(N4CC5CCC4CO5)nn4c(C(F)(F)F)cnc34)[nH]c2c1F (stereo not shown) and report it. ≤ 50 nM

---

# IC50 annotations
Tested on: MDA-MB-231 breast cancer cells
Assay Procedure: Proliferation inhibitory activity assay against MDA-MB-231 breast cancer cells
Format: cell-based
Run Conditions: Homo sapiens, 72 hours, CellTiter Glo, relative IC50

Example molecules with recorded IC50:
Substance Smiles | Measured Attribute | Reading
FC(F)(F)c1cnc2c(NCc3nc4cc(Cl)c(Cl)cc4[nH]3)cc(N3CC4CCC(C3)O4)nn12 | IC50 | 50 to 500 nM
OC1(C2CN(c3cc(NCc4nc5cc(Cl)c(Cl)cc5[nH]4)c4ncc(C(F)(F)F)n4n3)C2)CC1 | IC50 | 50 to 500 nM
O[C@H]1CCN(c2cc(NCc3nc4cc(Cl)c(Cl)cc4[nH]3)c3ncc(C(F)(F)F)n3n2)C1 | IC50 | 50 to 500 nM

Note: attention shifts to another entry.
Short answer please: IC50, MDA-MB-231 breast cancer cells, entry `NC1CCN(c2cc(NCc3nc4ccc(F)c(F)c4[nH]3)c3ncc(C(F)(F)F)n3n2)CC1` ≤ 50 nM

---

Study System: CDK12 (Homo sapiens)
Sequence (Q9NYV4 whole entry, species assumed, one chain of several): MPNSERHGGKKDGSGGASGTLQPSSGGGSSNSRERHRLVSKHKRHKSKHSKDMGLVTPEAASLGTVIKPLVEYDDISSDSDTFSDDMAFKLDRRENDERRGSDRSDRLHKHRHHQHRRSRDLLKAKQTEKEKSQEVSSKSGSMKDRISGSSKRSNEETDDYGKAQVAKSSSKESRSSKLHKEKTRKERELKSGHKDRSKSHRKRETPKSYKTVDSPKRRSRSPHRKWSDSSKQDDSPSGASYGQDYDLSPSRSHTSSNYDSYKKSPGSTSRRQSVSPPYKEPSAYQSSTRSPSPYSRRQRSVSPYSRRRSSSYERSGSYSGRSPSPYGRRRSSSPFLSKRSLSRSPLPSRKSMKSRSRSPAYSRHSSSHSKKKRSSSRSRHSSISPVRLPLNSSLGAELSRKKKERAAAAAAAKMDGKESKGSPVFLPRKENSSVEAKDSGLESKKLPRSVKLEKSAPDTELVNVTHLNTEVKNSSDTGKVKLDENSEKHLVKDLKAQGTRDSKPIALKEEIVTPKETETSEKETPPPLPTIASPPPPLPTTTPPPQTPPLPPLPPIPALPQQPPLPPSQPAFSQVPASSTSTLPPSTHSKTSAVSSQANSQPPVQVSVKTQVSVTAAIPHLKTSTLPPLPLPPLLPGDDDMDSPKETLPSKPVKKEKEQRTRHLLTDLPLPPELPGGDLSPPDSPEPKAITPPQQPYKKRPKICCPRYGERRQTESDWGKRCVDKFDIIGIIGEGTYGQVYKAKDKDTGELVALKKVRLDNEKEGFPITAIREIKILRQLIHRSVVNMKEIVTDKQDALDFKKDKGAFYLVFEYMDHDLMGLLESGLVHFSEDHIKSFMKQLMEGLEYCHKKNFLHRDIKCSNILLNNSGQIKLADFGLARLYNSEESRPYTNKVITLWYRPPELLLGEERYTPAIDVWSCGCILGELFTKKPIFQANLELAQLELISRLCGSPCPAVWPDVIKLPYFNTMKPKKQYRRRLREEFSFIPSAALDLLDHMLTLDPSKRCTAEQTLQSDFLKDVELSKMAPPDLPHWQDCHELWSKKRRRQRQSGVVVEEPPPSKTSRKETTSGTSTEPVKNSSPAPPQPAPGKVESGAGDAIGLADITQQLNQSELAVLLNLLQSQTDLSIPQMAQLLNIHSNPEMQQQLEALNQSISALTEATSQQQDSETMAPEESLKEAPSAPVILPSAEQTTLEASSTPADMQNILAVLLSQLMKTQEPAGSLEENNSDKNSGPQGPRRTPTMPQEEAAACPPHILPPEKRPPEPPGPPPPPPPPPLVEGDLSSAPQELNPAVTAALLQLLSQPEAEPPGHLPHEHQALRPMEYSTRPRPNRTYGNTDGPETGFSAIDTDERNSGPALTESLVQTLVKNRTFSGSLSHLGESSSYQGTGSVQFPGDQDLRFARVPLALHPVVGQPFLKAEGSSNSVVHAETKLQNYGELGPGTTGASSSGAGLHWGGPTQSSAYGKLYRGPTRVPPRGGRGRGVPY
Assay Procedure: CDK12 kinase inhibitory activity assay (33P-ATP filter binding)
Format: biochemical
Run Conditions: kinase reaction 120 minutes, 33P-gamma-ATP; read-out: CDK12 IC50
pIC50: −log10 of the molar value.
Measured Attribute: pIC50

Compound | Study System | Reading
Fc1ccc2nc(CNc3cc(N4CCN(C5CC5)CC4)nn4c(C(F)(F)F)cnc34)[nH]c2c1F [Example 28] | CDK12 (Homo sapiens) | 6.30 to 7.00
FC(F)(F)c1cnc2c(NCc3cn4ccccc4n3)cc(N3CCOCC3)nn12 [Example 82] | CDK12 (Homo sapiens) | > 7.00
NC(=O)C1CN(c2cc(NCc3nc4cc(Cl)c(Cl)cc4[nH]3)c3ncc(C(F)(F)F)n3n2)C1 [Example 65] | CDK12 (Homo sapiens) | > 7.00
N#CC1CCN(c2cc(NCc3nc4ccc(F)c(F)c4[nH]3)c3ncc(C(F)(F)F)n3n2)CC1 [Example 56] | CDK12 (Homo sapiens) | > 7.00
CN1C2CC1CN(c1cc(NCc3nc4cc(Cl)c(Cl)cc4[nH]3)c3ncc(C(F)(F)F)n3n1)C2 [Example 98] | CDK12 (Homo sapiens) | > 7.00

Find the recorded pIC50 belonging to Fc1ccc2nc(CNc3cc(N4CCC4)nn4c(C(F)(F)F)cnc34)[nH]c2c1F [Example 15] and report it. 6.30 to 7.00

Find the recorded pIC50 belonging to N#CC1(O)CCN(c2cc(NCc3nc4cc(Cl)c(Cl)cc4[nH]3)c3ncc(C(F)(F)F)n3n2)C1 (centres unmarked) [Example 61] and report it. 6.30 to 7.00

Find the recorded pIC50 belonging to FC(F)(F)c1cnc2c(NCc3nc4cc(Cl)c(Cl)cc4[nH]3)cc(N3CC4CCC(C3)N4)nn12 [Example 94] and report it. > 7.00
